procedure summary: Oral pharmacokinetics of curcumin in plasma of freely mobile rats
Assay type: in vivo, Male Sprague-Dawley rats
measurement conditions: male, Sprague-Dawley, rat, plasma, po, 1 g/kg
observed property: AUC (ng·h/mL)
Number in ng·h/mL, nothing else.

Input: Give AUC for the following compound: COc1cc(/C=C/C(=O)CC(=O)/C=C/c2ccc(O)c(OC)c2)ccc1O
Output: 104

Data origin, for the record: paper PMC3384366
